assay: clinical; conditions: human, in vivo, iv, CL
Please assign a class to every record based on measured clearance, with ranges low group: < 3 mL/min/kg; middle group: ≥ 3 mL/min/kg and < 7 mL/min/kg; high group: ≥ 7 mL/min/kg

Cc1ccccc1N1C(=O)c2cc(S(N)(=O)=O)c(Cl)cc2NC1C (centres undefined) : low group
CC(=O)O[C@@]12CO[C@@H]1C[C@H](O)[C@@]1(C)C(=O)[C@H](O)C3=C(C)[C@@H](OC(=O)[C@H](O)[C@@H](NC(=O)OC(C)(C)C)c4ccccc4)C[C@@](O)([C@@H](OC(=O)c4ccccc4)[C@H]21)C3(C)C.O.O.O : high group
CC[C@H](C)C(=O)O[C@H]1C[C@H](O)C=C2C=C[C@H](C)[C@H](CC[C@@H](O)C[C@@H](O)CC(=O)O)[C@H]21 : high group
CC1CNc2c(cccc2S(=O)(=O)N[C@@H](CCCNC(=N)N)C(=O)N2CC[C@@H](C)C[C@@H]2C(=O)O)C1 (some centres undefined) : middle group
C[C@@H]1CC(=O)NN=C1c1ccc(NN=C(C#N)C#N)cc1 : middle group
C=CC[N+]1([C@H]2C[C@H]3[C@@H]4CC[C@H]5C[C@H](O)[C@@H](N6CCOCC6)C[C@]5(C)[C@H]4CC[C@]3(C)[C@H]2OC(C)=O)CCCC1 : middle group
CN1CC[C@H](c2c(O)cc(O)c3c(=O)cc(-c4ccccc4Cl)oc23)[C@H](O)C1 : middle group
O=C1NCC2(CCN(CCc3ccccc3)CC2)O1 [FENSPIRIDE] : low group

Query block: GET /class?item= Cc1cnc(NCCCN(C)C)c2c1[nH]c1ccc3cc(O)ccc3c12
Result block: high group

Query block: GET /class?item= CC[C@@]1(O)C(=O)OCc2c1cc1n(c2=O)Cc2c-1nc1cc(F)c(C)c3c1c2[C@@H](N)CC3
Result block: low group

====

experiment: clinical; settings: human, in vivo, iv
reported-metric: MRT

Some solved cases for reference:
c1ccc(C2(c3ccccc3)CC2C2=NCCN2)cc1 (configuration not stated) : 7.8 h
CN(C(=O)c1c(O)c2ccccc2n(C)c1=O)c1ccccc1 : 43 h
CCCCCC/C=C\CCCCCCCCCC(=O)N[C@H]1[C@H](OC[C@H]2O[C@H](OP(=O)(O)O)[C@H](NC(=O)CC(=O)CCCCCCCCCCC)[C@@H](OCCCCCCCCCC)[C@@H]2O)O[C@H](COC)[C@@H](OP(=O)(O)O)[C@@H]1OCC[C@@H](CCCCCCC)OC : 62 h
CC(=O)OCC1=C(C(=O)O)N2C(=O)[C@@H](NC(=O)Cc3cccs3)[C@H]2SC1 : 0.65 h
Nc1cc(-c2ccncc2)c[nH]c1=O : 2.4 h

Query block: Endpoint output: MRT of C[C@@H]1CC2=CC(=O)CC[C@]2(C)[C@H]2CC[C@@]3(C)[C@@H](CC[C@@H]3O)[C@]12C . Value?
Result block: 0.67 h

Query block: Endpoint output: MRT of C[C@H](N[C@@H](CCc1ccccc1)C(=O)O)C(=O)N1CCC[C@H]1C(=O)O [ENALAPRILAT ANHYDROUS] . Value?
Result block: 4 h

====

details: human, in vivo, iv
reported-metric: CL (mL/min/kg)
Field format: number, assumed mL/min/kg, no unit text.

Some solved cases for reference:
O=[N+]([O-])O[C@@H]1CO[C@H]2[C@@H]1OC[C@@H]2O (stereo in doubt; form 2) [ISOSORBIDE MONONITRATE] : 2
COC(=O)C(c1ccccc1)C1CCCCN1 (stereo unspecified) [METHYLPHENIDATE] : 0.55
CCC1=C[C@@H]2CN(C1)Cc1c([nH]c3ccccc13)[C@@](C(=O)OC)(c1cc3c(cc1OC)N(C)[C@H]1[C@@](O)(C(=O)OC)[C@H](OC(C)=O)[C@]4(CC)C=CCN5CC[C@]31[C@@H]54)C2 (stereo in doubt; form 2) : 20
O=[N+]([O-])O[C@@H]1CO[C@H]2[C@@H]1OC[C@@H]2O (stereo in doubt; form 1) [ISOSORBIDE MONONITRATE] : 6.2
O=P1(N(CCCl)CCCl)NCCCO1 (stereo unspecified) [CYCLOPHOSPHAMIDE ANHYDROUS] : 1.1

Let's switch to this molecule now.
Query block: Endpoint output: CL of C[C@H]1[C@H](OC(=O)CCC(=O)O)O[C@@H]2O[C@@]3(C)CC[C@H]4[C@H](C)CC[C@@H]1[C@@]24OO3 [ARTESUNATE] . Value?
Result block: 1070
